Reference for the values: PubChem BioAssay (NCI)

Please go through the items and note down their growth.
# System: 786-0 renal
# TEST_DETAILS: NCI-60 one-dose screen, 48 h (100 = growth as untreated, 0 = no growth, -100 = all killed)
# CONDITION_INFO: 10 µM
About 83,000 compounds went through this panel and 20% of them were active in at least one assay; those are over-represented in the sample as a whole.
Report the figure in % without appending any unit label.

Note down growth recorded for `C(=C\c1nc2ccccc2s1)/c1ccc(N2CCOCC2)s1` 82.5

Note down growth recorded for Nc1nc2c(nnn2C2CC(O)C(CO)O2)c(=O)[nH]1 (stereo not drawn) 50.7

Note down growth recorded for `N#Cc1c(-c2ccccc2)nc(SCC(=O)N2CCOCC2)[nH]c1=O` 100

Note down growth recorded for `CCc1ccc(-c2nnc(COc3ccc(-c4nc5cc(Cl)c(Cl)cc5[nH]4)cc3OC)o2)cc1` 77.1

Note down growth recorded for `Cc1cc(Nc2cccc(F)c2)nc(NCc2ccccc2)n1` 45.7

Note down growth recorded for `C#CCNCCCN1C(=O)c2ccc3c4c(ccc(c24)C1=O)C(=O)N(CCCNCC#C)C3=O` -56.9

Note down growth recorded for Cc1ccc(C2C=C(c3ccc(Cl)cc3)N=C3SC=CN32)c(Br)c1 (stereo not drawn) 93.1

Note down growth recorded for NC1CCC(Nc2nc(NCc3ccc(-c4cccs4)nc3)c3ncn(C4CCCC4)c3n2)CC1 (stereo not drawn) 0.15

Note down growth recorded for `O=C(COc1ccc(-c2nc3ccccc3[nH]2)cc1)N=Nc1c(O)[nH]c2ccccc12` 96.8

Note down growth recorded for `O=C(NCCCl)c1cc(Cl)cc(Cl)c1` 102

Note down growth recorded for `CCOC(=O)c1c(C)n(-c2ccc(Cl)cc2)c2ccc(OC(=O)/C=C/c3ccccc3)cc12` 94.3

Note down growth recorded for `Cc1cc(C)c2nc(C)c(C)[n+]([O-])c2c1` 103

Note down growth recorded for `CCOC(=O)c1c(Cl)c2c(n1Cc1cccc(OC)c1)-c1oncc1CC2` 33.7

Note down growth recorded for `N#CN1CC[C@H](C(=O)Nc2ncc(-c3ccccc3)s2)C1` 3.56

Note down growth recorded for `CCCCCCCCCCCCCCCCCBr` 104

Note down growth recorded for `CCNC(=S)NN` 99.5

Note down growth recorded for `Cc1ccc(NS(=O)(=O)c2ccccc2)c(NS(=O)(=O)c2ccccc2)c1` 108

Note down growth recorded for `CN(C1c2ccccc2Oc2ccccc21)S(=O)(=O)c1cc(Cl)ccc1Cl` 64.1

Note down growth recorded for `COc1ccc(CSc2nc3cc(OC)c(OC)cc3c(=O)n2-c2ccc(OC)cc2OC)cc1` 95.7

Note down growth recorded for `CCc1ccc(-c2nnc(COc3ccc(-c4nc5ccc(C)cc5[nH]4)cc3OC)o2)cc1` 21

Note down growth recorded for `N#CN1CC[C@H](C(=O)Nc2ncc(-c3ccncc3)s2)C1` 5.77

Note down growth recorded for NC(=O)C1CCCN(Cc2c[nH]c3ccccc23)C1 (stereo not drawn) 105

Note down growth recorded for CCCCCCCCCCSC(=N)N (tested in a mixture with another compound) 52.4

Note down growth recorded for `O=C(Nc1cccc(-c2nc3ccccc3[nH]2)c1)c1cccc(NC(=O)c2ccco2)c1` 67

Note down growth recorded for Cc1cc(O)c(C2=NN(c3ccc(S(N)(=O)=O)cc3)C(c3ccc(N(C)C)cc3)C2)c(C)c1Cl (stereo not drawn) 95.6

Note down growth recorded for `CCCCCCCOc1cccc(/C=C2/C(=O)N=C3SCCCN32)c1` 80.4

Note down growth recorded for `NC(N)=NS(=O)(=O)c1ccc(Nc2ccc3nnc(-c4ccncc4)n3n2)cc1` 104

Note down growth recorded for `COc1ccc(-n2nnc3c(sc4ccccc43)c2=O)cc1` 21.4

Note down growth recorded for Nc1nc2c(ncn2C2OC3COP(=O)(O)OC4C(COP(=O)(O)OC2C3O)OC(n2cnc3c(N)ncnc32)C4O)c(=O)[nH]1 (stereo not drawn) 103

Note down growth recorded for `NCCNc1ccc2cc(-c3nc4ccccc4[nH]3)c(=O)oc2c1` 106

Note down growth recorded for `CCSc1nc2c([nH]1)c(=O)n(C)c(=S)n2C` 100

Note down growth recorded for `CC(=O)Nc1nc(C)c(C(=O)NNC=O)s1` 118

Note down growth recorded for `C/C(=N\NC(N)=S)C(C)(C)O` 96.3

Note down growth recorded for `C=CCn1ccc(=O)nc1SC` 101

Note down growth recorded for CN(C)c1ccc2cc(-c3cc4c(oc3=O)-c3ccccc3OC4O)c(=O)oc2c1 (stereo not drawn) -15.7

Note down growth recorded for `COc1cc(C2=Nc3c/c(=C\c4c(O)[nH]c5ccc(Cl)cc45)ccc3=N2)cc(OC)c1OC` -6.36

Note down growth recorded for `COc1cc(OC)cc(-c2n/c(=C\c3c(O)[nH]c4ccc(OC)cc34)cc3c2=Nc2ccccc2-3)c1` 75.9

Note down growth recorded for `COC(=O)c1ccc(Cn2ccc(=O)[nH]c2=O)cc1` 80.5

Note down growth recorded for `COC(=O)c1c(C)nc(Nc2nc3ccccc3s2)nc1-c1ccc(Cl)cc1Cl` 104

Note down growth recorded for `C=CCc1cc(Nc2c3ccc(Cl)cc3nc3ccc(OC)cc23)cc(CN(CC)CC)c1O` 12.3

Note down growth recorded for `Cc1c(C(=O)N[C@H](CO)Cc2ccccc2)[nH]c2ccc(Cl)cc2c1=O` 96.4

Note down growth recorded for COc1cc(C2c3cc4c(cc3C(O)C(CO)C2CO)OCO4)cc(OC)c1OC (stereo not drawn) 39.1

Note down growth recorded for NC(=O)C12C(=O)NC(=O)C1(C(=O)O)C21CCCC1 (stereo not drawn) 101
